tested on: MCF7; test: NCI tumour cell line growth inhibition, 48 h
Active and inactive are the calls of the source. Cut-off read from the data, not from the text of the source: active = GI50 up to about 1.1 µM and inactive = higher.
Outcome codes: T (active), F (inactive)

COMPOUND	GROUP_LABEL
O=C(N[C@@H](Cc1ccccc1)B(O)O)[C@H](Cc1cccc2ccccc12)NC(=O)N1CCOCC1	T
O=c1c2ncn(C3CCCO3)c2n(-c2ccccc2)c(=S)n1-c1ccccc1 (stereo not drawn)	F
CCOC(=O)C1CCCc2sc(N)c(C#N)c21 (stereo not drawn)	F
[N-]=[N+]=NI1OC(C(F)(F)F)(C(F)(F)F)c2ccccc21	F
CCOC(=O)CO/N=C1/C(=C2/C(=O)Nc3ccccc32)Nc2ccccc21	F
COC1/C=C/C(C)C(C(C)C(OC)C(C)CCC(=O)C(C)C(CCC(=O)O)OC)OC(=O)/C=C/C=C(\C)CC(OC)CC2=CC(=O)O[C@@H](C(C)C(OC)CC(OC)/C=C/C(C)C(OC)C1)[C@H]2O (stereo partly drawn)	T
Cc1cc(Br)cc(C)c1NC(=O)C(=O)C1C(=O)C(CC2C(=O)c3ccccc3C2=O)C(=O)CC1(C)C (stereo not drawn)	F
COc1ccc(C(Nc2ncccn2)c2cc3c(cc2O)OCO3)cc1 (stereo not drawn)	F

---

test system: 786-0; test: NCI tumour cell line growth inhibition, 48 h
The source made the active and inactive calls. Rule as the data show it: active = GI50 up to about 1.1 µM and inactive = higher.
PROPERTY_LABEL: GI50

In [3]: df
Out[3]:
                                   compound  property_label                result
0  CC(=O)O[C@H]1C=CC23OC(=O)[C@]1(C)[C@H]2[C@H](C(=O)O)C12CC(=O)[C@@](CO)(CC[C@H]13)C2            GI50   > 100 µM (inactive)
1  COc1cccc(C2ON=C(c3ccccc3)N2C23CC4CC(CC(C4)C2)C3)c1 (stereo not given)            GI50    > 10 µM (inactive)
2  CN(C)CC1CCCCCCCCCC(CN(C)C)C1=O (stereo not given)            GI50  > 20.6 µM (inactive)
3  COC(=O)C1C(/C=C/c2ccoc2)ON2CCC[C@@H]12 (stereo not given in full)            GI50   > 100 µM (inactive)
4     O=Cc1cc2c(cc1-c1cc3c(cc1C=O)OCO3)OCO2            GI50   > 100 µM (inactive)

---

tested on: Malme-3M; assay: NCI tumour cell line growth inhibition, 48 h
Structures can show the parent of a compound that is named as a salt. Active and inactive are the calls of the source. No stated cut-off is given here; in the data, active = GI50 up to about 1.1 µM and inactive = higher. Non-standard residues stand in square brackets, D forms with d. Residues, ends and D or L forms follow the SMILES beside them. *: point of attachment. NMeF = CN[CH](Cc1ccccc1)C(=O)O; NMeV = CN[CH](C(=O)O)C(C)C; Boc = CC(C)(C)OC(=O)*; OBn = c1ccc(CO*)cc1
Labels: active, inactive

COMPOUND	GROUP_LABEL
COC(=O)C12C3C4C1C1C2C3C41C(=O)N(C(C)C)C(C)C (stereo unspecified)	inactive
O=C(/C=C(\Nc1ccccc1O)c1ccc(Br)cc1)C(Cl)(Cl)Cl	inactive
CC[C@@]1(O)C(=O)OCc2c1cc1n(c2=O)Cc2cc3c(CN(C)C)c(O)ccc3nc2-1 [TOPOTECAN HYDROCHLORIDE]	active
O=C1CC2[C@@H](N3CCCC3)CCC(N1Cc1ccccc1)C2(O)O (stereo partly specified)	inactive
CCOC(=O)C1C=C2O[C@@H]3OC4(CCCCC4)O[C@@H]3C2C2C(=O)CCC(=O)[C@@]12C(=O)OC (stereo partly specified)	inactive
Cc1cccc(Nc2nc3ccccc3nc2NS(=O)(=O)c2ccc(N)cc2)c1	inactive
CCNc1nc2c(=O)n(C)c(=O)n(C)c2s1	inactive
CC(C)C(NC(=O)OC(C)(C)C)C(=O)N(C)C(Cc1ccccc1)C(=O)N(C)C(C(=O)OCc1ccccc1)C(C)C (stereo not drawn) (Boc-Val-[NMeF]-[NMeV]-OBn; configuration not given here)	inactive
COc1ccc2c(c1)/C(=C\c1c(Cl)nc3n1CCS3)C(=O)N2	inactive
C[C@]12CC[C@H]3[C@@H](CCC4=CC(=O)CC[C@@H]43)[C@@H]1CC[C@]2(O)C(N)=O	inactive
CCCCCCCCCc1cc(O)c(O)cc1CCCCCCCCC	inactive
C[C@]12CC[C@H]3[C@@H](CCC4=C/C(=N/OCCN5CCCCC5)CC[C@@]43C)[C@@H]1CC[C@@H]2O	inactive
CN(C(=O)c1ccco1)C(=S)N1CCN(c2ccccn2)CC1	inactive
Nc1ccn(CCNCCn2cnc3nc(N)[nH]c(=O)c32)c(=O)n1	inactive
Cc1ccc(S(=O)OC2C3CC4CC(C3)CC2C4)cc1 (stereo unspecified)	inactive
c1ccc(C(=NCCC2CNc3ccccc32)c2ccccc2)cc1 (stereo unspecified)	inactive
COC1CC(O[C@H]2CC[C@@]3(C)[C@@H](CC[C@]4(O)[C@@H]3CC[C@]3(C)[C@@H](C(C)=O)[C@H](OC(=O)CC(C)C)[C@@H](OC(=O)c5ccccc5)[C@@]34O)C2)OC(C)C1OC1CC(OC)C(OC2OC(C)C(O)C(OC)C2O)C(C)O1 (stereo partly specified)	inactive
CNc1ccc([N+](=O)[O-])cc1C(=O)N1CCC[C@H]1CO	inactive
Nc1ncnc2c(C3OC(CO)C(O)C3O)n[nH]c12 (stereo unspecified)	active
NNc1[nH]c(=S)[nH]c1C(N)=O	inactive
Cc1csc2nc(-c3cccc([N+](=O)[O-])c3)c(/C=N/N=C(N)N)n12	inactive
COc1cc(OC)c2c(O)cc(CC(C)O)cc2c1 (stereo unspecified)	inactive
COc1ccc(-c2c(N)[n+]([O-])c3ccccc3[n+]2[O-])cc1OC	inactive
NCCCNCCCCN1CCOC1=O	inactive
Cc1c(Cl)ccc2c1NC(=O)C2(O)CC(=O)c1ccc2ccccc2c1 (stereo unspecified)	inactive
N=C(NC(=N)Nc1ccc(S(=O)(=O)Nc2cnc3ccccc3n2)cc1)Nc1ccc(Br)cc1	inactive
CNC1C(OC2C(OC3C(O)C(O)C(O)C(O)C3O)OC(C)C2(O)CO)OC(CO)C(O)C1O.N=C(N)N.NC(=O)O (stereo unspecified)	inactive
Cc1ccc(C)c(NC(=O)/C(=N\NC(N)=S)C(C#N)c2ccccc2)c1 (stereo unspecified)	inactive
COc1ccc(C2SCC(=O)N2c2ccc(-n3c(-c4ccccc4)nc4ccccc4c3=O)cc2)cc1OC (stereo unspecified)	inactive
O=C(CC1(O)C(=O)Nc2ccc([N+](=O)[O-])cc21)c1ccc(Br)cc1 (stereo unspecified)	inactive
Cc1cccc(C(C)(C)C)c1NC(=O)C(C#N)C1=C(Cl)C(=O)c2ccccc2C1=O (stereo unspecified)	inactive
